- System: biotinyl-Met-oxazolone
- assay.summary: self-aminoacylation, catalytic enhancement (BMO) (fold over background); higher = more active; k-Seq, kA / k0A0; sequences stand for … in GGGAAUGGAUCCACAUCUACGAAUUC…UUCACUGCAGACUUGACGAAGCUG
This sample holds only a part of the variants without activity.
Grouping key: self-aminoacylation. Bins: group A = under 1, group B = from 1 up to 3, group C = 3 and over

item_sequence="AUUCACCUAGGUCAUCCGGCG [Fam2.2 aminoacylation ribozyme variant]" system_tested=biotinyl-Met-oxazolone cat="group C"
item_sequence="AAGGUUGCUAAUCGUCGCAAG [Fam3.1 aminoacylation ribozyme variant]" system_tested=biotinyl-Met-oxazolone cat="group B"
item_sequence="AAGUUUGGUAAUAGCCGCAAG [Fam3.1 aminoacylation ribozyme variant]" system_tested=biotinyl-Met-oxazolone cat="group B"
item_sequence="CUAUUUCAAACAUUCGGUCUG [Fam1A.1 aminoacylation ribozyme variant]" system_tested=biotinyl-Met-oxazolone cat="group B"
item_sequence="CCACACUUCAGGUAAUCGGUC [Fam1B.1 aminoacylation ribozyme variant]" system_tested=biotinyl-Met-oxazolone cat="group A"
item_sequence="AAGUUUGCUAGUAGUCGCGAG [Fam3.1 aminoacylation ribozyme variant]" system_tested=biotinyl-Met-oxazolone cat="group B"
item_sequence="AGUACCCUGGUCAUCCAGUGA [Fam2.1 aminoacylation ribozyme variant]" system_tested=biotinyl-Met-oxazolone cat="group C"
item_sequence="CUGCUUCAACCAAUCGGUCUG [Fam1A.1 aminoacylation ribozyme variant]" system_tested=biotinyl-Met-oxazolone cat="group B"
item_sequence="CUACACUUCUAGCAAUCGGUC [Fam1B.1 aminoacylation ribozyme variant]" system_tested=biotinyl-Met-oxazolone cat="group A"
item_sequence="AUUACCUUGGUCAUCGAGUGG [Fam2.1 aminoacylation ribozyme variant]" system_tested=biotinyl-Met-oxazolone cat="group B"
item_sequence="AUUCACCUAGGUCAUGGGGUA [Fam2.2 aminoacylation ribozyme variant]" system_tested=biotinyl-Met-oxazolone cat="group B"
item_sequence="AUACACCUAGGUCAUCGGGUU [Fam2.2 aminoacylation ribozyme variant]" system_tested=biotinyl-Met-oxazolone cat="group B"
item_sequence="AUUCACCUAAGUCAUCGGGCG [Fam2.2 aminoacylation ribozyme variant]" system_tested=biotinyl-Met-oxazolone cat="group B"
item_sequence="AAGUCUGCUAAUAGUCGCAAC [Fam3.1 aminoacylation ribozyme variant]" system_tested=biotinyl-Met-oxazolone cat="group B"
item_sequence="CUACUUCAAACAAUCGGAGUG [Fam1A.1 aminoacylation ribozyme variant]" system_tested=biotinyl-Met-oxazolone cat="group C"
item_sequence="AUUACCGUGGUCAUCCAGUGA [Fam2.1 aminoacylation ribozyme variant]" system_tested=biotinyl-Met-oxazolone cat="group C"
item_sequence="AUUACCCUAGUCAUCGAGUCA [Fam2.1 aminoacylation ribozyme variant]" system_tested=biotinyl-Met-oxazolone cat="group A"
item_sequence="AUUCACCUAGGUCACCGCGUG [Fam2.2 aminoacylation ribozyme variant]" system_tested=biotinyl-Met-oxazolone cat="group C"

---

Listing: self-aminoacylation of selected sequences
- Test system: biotinyl-Phe-oxazolone
- assay.summary: self-aminoacylation, catalytic enhancement (BFO) (fold over background); higher = more active; k-Seq, kA / k0A0; sequences stand for … in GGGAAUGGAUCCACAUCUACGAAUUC…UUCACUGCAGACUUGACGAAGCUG
This sample holds only a part of the variants without activity.
measurement.kind: self-aminoacylation

item_sequence="AAGUUUGCGACUAGUCGCAAG [Fam3.1 aminoacylation ribozyme variant]" system_tested=biotinyl-Phe-oxazolone observed_measurement=2.33
item_sequence="CUACUUCUAACAGUCGGUCUG [Fam1A.1 aminoacylation ribozyme variant]" system_tested=biotinyl-Phe-oxazolone observed_measurement=0.402
item_sequence="CCACACUUAAAGCAACCGGUC [Fam1B.1 aminoacylation ribozyme variant]" system_tested=biotinyl-Phe-oxazolone observed_measurement=0.756
item_sequence="AUUACCCUCGUCAUCGAGUGA [Fam2.1 aminoacylation ribozyme variant]" system_tested=biotinyl-Phe-oxazolone observed_measurement=8.82
item_sequence="AUCCACAUAGGUCAUCGGGUG [Fam2.2 aminoacylation ribozyme variant]" system_tested=biotinyl-Phe-oxazolone observed_measurement=78.8
item_sequence="AUAACCCUGGACAUCGAGUGA [Fam2.1 aminoacylation ribozyme variant]" system_tested=biotinyl-Phe-oxazolone observed_measurement=28.8
item_sequence="CUACUUAAAACAAUCGGUCCG [Fam1A.1 aminoacylation ribozyme variant]" system_tested=biotinyl-Phe-oxazolone observed_measurement=0.603
item_sequence="CCACCCUUCAAGCAAGCGGUC [Fam1B.1 aminoacylation ribozyme variant]" system_tested=biotinyl-Phe-oxazolone observed_measurement=0.522
item_sequence="CUAAUACAAACAAUCGGUCUG [Fam1A.1 aminoacylation ribozyme variant]" system_tested=biotinyl-Phe-oxazolone observed_measurement=0.757
item_sequence="AUACACCUAGGUCAUAGGGUG [Fam2.2 aminoacylation ribozyme variant]" system_tested=biotinyl-Phe-oxazolone observed_measurement=3.76
item_sequence="AUUACCCCUGUCAUCGAGUGA [Fam2.1 aminoacylation ribozyme variant]" system_tested=biotinyl-Phe-oxazolone observed_measurement=28.2
item_sequence="CUACUUCGGACAAUCGGUCUG [Fam1A.1 aminoacylation ribozyme variant]" system_tested=biotinyl-Phe-oxazolone observed_measurement=0.631
item_sequence="AUUGACCUGGUCAUCGAGUGA [Fam2.1 aminoacylation ribozyme variant]" system_tested=biotinyl-Phe-oxazolone observed_measurement=8.3
item_sequence="AGUCACCUAGGUCAUCGGCUG [Fam2.2 aminoacylation ribozyme variant]" system_tested=biotinyl-Phe-oxazolone observed_measurement=18.9
item_sequence="CCACAAUUCAAGCCAUCGGUC [Fam1B.1 aminoacylation ribozyme variant]" system_tested=biotinyl-Phe-oxazolone observed_measurement=1.19
item_sequence="AAGUUUGCUAACAGUCGCAAU [Fam3.1 aminoacylation ribozyme variant]" system_tested=biotinyl-Phe-oxazolone observed_measurement=0.994
item_sequence="AUUCACCUAAGUCACCGGGUG [Fam2.2 aminoacylation ribozyme variant]" system_tested=biotinyl-Phe-oxazolone observed_measurement=53.8
item_sequence="CUACUUCAAACGAUCGGGCUG [Fam1A.1 aminoacylation ribozyme variant]" system_tested=biotinyl-Phe-oxazolone observed_measurement=1.11

---

- Test system: biotinyl-Met-oxazolone
- assay.summary: self-aminoacylation, catalytic enhancement (BMO) (fold over background); higher = more active; k-Seq, kA / k0A0; sequences stand for … in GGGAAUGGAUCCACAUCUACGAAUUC…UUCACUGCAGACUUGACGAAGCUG
Variants at the floor of the assay were thinned out.
measurement.kind: self-aminoacylation

item_sequence="AUUACACUGGUCAUCGAGUGU [Fam2.1 aminoacylation ribozyme variant]" measurement_kind=self-aminoacylation observed_measurement=2.61
item_sequence="AGUACCCUAGUCAUCGAGUGA [Fam2.1 aminoacylation ribozyme variant]" measurement_kind=self-aminoacylation observed_measurement=4.86
item_sequence="CCACACUUCACGUAAUCGGUC [Fam1B.1 aminoacylation ribozyme variant]" measurement_kind=self-aminoacylation observed_measurement=0.822
item_sequence="CCACACUUCAACCAAUCGGCC [Fam1B.1 aminoacylation ribozyme variant]" measurement_kind=self-aminoacylation observed_measurement=1.55
item_sequence="AUGACCAUGGUCAUCGAGUGA [Fam2.1 aminoacylation ribozyme variant]" measurement_kind=self-aminoacylation observed_measurement=7.94
item_sequence="AUACUUCAAACAAGCGGUCUG [Fam1A.1 aminoacylation ribozyme variant]" measurement_kind=self-aminoacylation observed_measurement=0.884
item_sequence="UUACACUUCAAGCAAUCGGUC [Fam1B.1 aminoacylation ribozyme variant]" measurement_kind=self-aminoacylation observed_measurement=1.26
item_sequence="CCAGACUUCAAGCAAUCUGUC [Fam1B.1 aminoacylation ribozyme variant]" measurement_kind=self-aminoacylation observed_measurement=0.444
item_sequence="AUUACCCCGGUCAUCCAGUGA [Fam2.1 aminoacylation ribozyme variant]" measurement_kind=self-aminoacylation observed_measurement=4.93
item_sequence="AAGUUUGAUAAUAGUCUCAAG [Fam3.1 aminoacylation ribozyme variant]" measurement_kind=self-aminoacylation observed_measurement=0.731
item_sequence="AAGUUUGCUAAUAGUCUGAAG [Fam3.1 aminoacylation ribozyme variant]" measurement_kind=self-aminoacylation observed_measurement=0.971
item_sequence="AUUGACCUAGGUCAUCGGGGG [Fam2.2 aminoacylation ribozyme variant]" measurement_kind=self-aminoacylation observed_measurement=3.21
item_sequence="AUACACCUAGGUCAUCGGGUG [Fam2.2 aminoacylation ribozyme variant]" measurement_kind=self-aminoacylation observed_measurement=3.88
item_sequence="CCACACCUCAAGCUAUCGGUC [Fam1B.1 aminoacylation ribozyme variant]" measurement_kind=self-aminoacylation observed_measurement=1.21
item_sequence="CCAUUUCAAACAAUCGGUCUG [Fam1A.1 aminoacylation ribozyme variant]" measurement_kind=self-aminoacylation observed_measurement=1.13
item_sequence="AAGGUUGCUAAUAGUCGCAAU [Fam3.1 aminoacylation ribozyme variant]" measurement_kind=self-aminoacylation observed_measurement=1.81
item_sequence="AUUCACCUAAGUCAUCGGAUG [Fam2.2 aminoacylation ribozyme variant]" measurement_kind=self-aminoacylation observed_measurement=0.736
item_sequence="AUUAGACUGGUCAUCGAGUGA [Fam2.1 aminoacylation ribozyme variant]" measurement_kind=self-aminoacylation observed_measurement=4.4
item_sequence="CCAUUCUUCAAGCAAUCGGUC [Fam1B.1 aminoacylation ribozyme variant]" measurement_kind=self-aminoacylation observed_measurement=0.939
item_sequence="GUUACCCUGCUCAUCGAGUGA [Fam2.1 aminoacylation ribozyme variant]" measurement_kind=self-aminoacylation observed_measurement=3.06
item_sequence="AUGCCCCUAGGUCAUCGGGUG [Fam2.2 aminoacylation ribozyme variant]" measurement_kind=self-aminoacylation observed_measurement=8.48
item_sequence="AUUUCCCUGGUGAUCGAGUGA [Fam2.1 aminoacylation ribozyme variant]" measurement_kind=self-aminoacylation observed_measurement=5.5
item_sequence="CUACUUUAACCAAUCGGUCUG [Fam1A.1 aminoacylation ribozyme variant]" measurement_kind=self-aminoacylation observed_measurement=0.779
item_sequence="AUUCACCUAUGUCAUCGGGUU [Fam2.2 aminoacylation ribozyme variant]" measurement_kind=self-aminoacylation observed_measurement=1.48
item_sequence="AAGUUUGCUAAUAGUUGCAUG [Fam3.1 aminoacylation ribozyme variant]" measurement_kind=self-aminoacylation observed_measurement=0.831
item_sequence="AUUACCCUUGUCAACGAGUGA [Fam2.1 aminoacylation ribozyme variant]" measurement_kind=self-aminoacylation observed_measurement=5.49
item_sequence="AUUACCCUGGUCACCUAGUGA [Fam2.1 aminoacylation ribozyme variant]" measurement_kind=self-aminoacylation observed_measurement=4.99
item_sequence="AAGUUUGCUUAUAGACGCAAG [Fam3.1 aminoacylation ribozyme variant]" measurement_kind=self-aminoacylation observed_measurement=0.559
item_sequence="AUUAACCUAGUCAUCGAGUGA [Fam2.1 aminoacylation ribozyme variant]" measurement_kind=self-aminoacylation observed_measurement=4.95
item_sequence="CUACAUCAAACAAUCGGUCCG [Fam1A.1 aminoacylation ribozyme variant]" measurement_kind=self-aminoacylation observed_measurement=1.1
item_sequence="AUUACCCUGGUUGUCGAGUGA [Fam2.1 aminoacylation ribozyme variant]" measurement_kind=self-aminoacylation observed_measurement=1.91
item_sequence="AUUCACCUAUGUCCUCGGGUG [Fam2.2 aminoacylation ribozyme variant]" measurement_kind=self-aminoacylation observed_measurement=3.04
item_sequence="ACUACCCUGGUCAUCGAGUGU [Fam2.1 aminoacylation ribozyme variant]" measurement_kind=self-aminoacylation observed_measurement=58.6
item_sequence="AAGUUUGCUUAUUGUCGCAAG [Fam3.1 aminoacylation ribozyme variant]" measurement_kind=self-aminoacylation observed_measurement=0.641
item_sequence="GUUCACCUAGGACAUCGGGUG [Fam2.2 aminoacylation ribozyme variant]" measurement_kind=self-aminoacylation observed_measurement=3.24
